From: the supplement of paper PMC10567573

B1: ZNF449 (parent)
chain: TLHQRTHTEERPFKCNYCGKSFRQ

- Variants of: B1
- measurement.description: protein stability index of a GFP-peptide fusion (GPS, HEK-293T) (PSI 1-6); higher = more stable;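 note: lentivirally expressed fusions sorted by FACS into six bins by GFP to DsRed ratio, PSI derived from sequencing read proportions per bin multiplied by bin number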
- settings: c terminus: a fixed tail appended
Entries and their measured protein stability index follow.
// no unit string in output, number only

Reference set, count: 5
>>> experimental_value("T8K")
3.13
>>> experimental_value("T1W")
2.01
>>> experimental_value("T1V")
3.17
>>> experimental_value("K20H")
1.91
>>> experimental_value("R23M")
2.8

Data request: Complete the entry with protein stability index for G19R
Data returned: 2.6

Data request: Complete the entry with protein stability index for T6N
Data returned: 2.08
